# System: MM649 cells
# Measurement Protocol: IncuCyte cytotoxicity assay (propidium iodide)
# Assay type: cell-based, human
# Conditions: 500 μM, after 120 minutes, majority of cells
# Experimental: A431 (human epidermoid carcinoma), MM649 (human melanoma), B16-OVA (B16-F10 mouse melanoma cell line stably transfected with chicken ovalbumin), MM415 (human melanoma) and FaDu (human hypopharyngeal carcinoma) cells were cultured in RPMI-1640, 10% FCS (complete medium) at 37° C., 5% CO2 in a humidified incubator. All cell lines used in this study were confirmed as mycoplasma negative using MycoAlert (Lonza). STR profiling was also performed to confirm the identity of the human cell lines used. […]
Metric Name: propidium iodide staining (loss of plasma membrane integrity)

CCCCCC(=O)OC1C(C)C2(O)C(C3OC3(CO)C(O)C3(O)C(=O)C(C)=CC32)C2C(C)(C)C12OC(=O)CCCCC (stereo not shown) ... strong red staining
CCC(C)C(=O)OC1C(C)C2(O)C(C3OC3(CO)C(O)C3(O)C(=O)C(C)=CC32)C2C(C)(C)C12OC(=O)C(C)CC (stereo not shown) ... strong red staining
CCCCCC(=O)OC1C(C)C2(O)C(C3OC3(CO)C(O)C3(O)C(=O)C(C)=CC32)C2C(C)(C)C12OC(=O)C(C)CC (stereo not shown) ... strong red staining
C/C=C(\C)C(=O)O[C@@H]1[C@@H](C)[C@@]2(O)[C@H]([C@@H]3C(C)(C)[C@]13OC(=O)[C@@H](C)CC)[C@@H]1O[C@]1(CO)[C@@H](O)[C@]1(O)C(=O)C(C)=C[C@H]12 ... strong red staining
